Experiment: Oral absorbability in rats (plasma concentration of compound 1)
Format: in vivo
Assay conditions: rat, 30 mg/kg, suspended in 0.5% HPMC aqueous solution, male Sprague Dawley rats, plasma, read-out: AUC0-24
Value type: AUC(0-t) (µM·h)
Numeric answer only, unit µM·h assumed.

Record Cn1nc2ccc(-c3c[nH]c4nc(N5[C@H]6CC[C@@H]5[C@H](N)C6)n(C)c(=O)c34)c(Cl)c2c1Cl (single isomer, unassigned) , field AUC(0-t): 37
